# System: CAKI-1 renal
# protocol_notes: NCI-60 one-dose screen, 48 h (100 = growth as untreated, 0 = no growth, -100 = all killed)
# condition_context: 10 µM unless noted
This is part of a sample that, as a whole, favours compounds with a hit. Of some 83,000 tested, about 20% had one in any assay.
Listed here: items and their measured growth.

smiles_entry: C=C1C(=O)O[C@H]2[C@H]1CC/C(CNC(=O)c1c[nH]c3ccc(F)cc13)=C\CC[C@@]1(C)O[C@@H]21
growth (%): 16.2

smiles_entry: COc1cccc(CCNc2ncnc3c2ncn3Cc2nnc3c4ccccc4c(Cl)nn23)c1
growth (%): 18.3

smiles_entry: O=C1/C(=C\c2cccc3nccnc23)SC(=S)N1CCc1ccc(O)cc1
growth (%): 79.1

smiles_entry: CC(=O)OC[C@]12CC[C@@H]([C@@H](C)c3nnc(-c4ccncc4)o3)[C@@H]1[C@H]1CC[C@@H]3[C@@]4(C)CC[C@H](OC(C)=O)C(C)(C)[C@@H]4CC[C@@]3(C)[C@]1(C)CC2
growth (%): 64.4

smiles_entry: Cc1nc2ccccc2c(/C=C/c2ccccc2)c1C(=O)/C=C/c1ccccc1
growth (%): 34.7

smiles_entry: CCOC(=O)C1=C(C)C(Cl)=N/C1=C\c1[nH]c(Cl)c(C)c1C(=O)OCC
growth (%): 94.5

smiles_entry: CNC(=O)c1cc(Oc2cccc3nc(NC(=O)Nc4cc(C(F)(F)F)ccc4Cl)ccc23)ccn1
growth (%): 85.8

smiles_entry: CCc1ccc(CCC(=O)Nc2ncc(Cc3ccccc3)s2)o1
growth (%): 33.3
